Where do the numbers come from? From patent US12280072B2.

Tested on: plasma
test: TT (thrombin time) clotting time
Assay type: biochemical
measurement type: Drug concentration required for multiplication of coagulation time (μg/mL) TT

CC1OC(OC2C=C(C(=O)O)OC(OC3C(NS(=O)(=O)O)C(OC4C(C(=O)O)OC(OC5C(NS(=O)(=O)O)C(OC6C(C(=O)O)OC(OC(C(CO)NS(=O)(=O)O)C(OS(=O)(=O)O)C(O)COS(=O)(=O)O)C(O)C6OC6OC(C)C(OS(=O)(=O)O)C(O)C6OS(=O)(=O)O)OC(COS(=O)(=O)O)C5OS(=O)(=O)O)C(O)C4OC4OC(C)C(OS(=O)(=O)O)C(O)C4OS(=O)(=O)O)OC(COS(=O)(=O)O)C3OS(=O)(=O)O)C2O)C(OS(=O)(=O)O)C(O)C1OS(=O)(=O)O (stereo not shown)    # (>128 μg/mL)
CC(=O)NC1C(OC2C(C(=O)O)OC(OC3C(NC(C)=O)C(OC4C(C(=O)O)OC(OC5C(NC(C)=O)C(OC(C(O)C(=O)O)C(OC6OC(C)C(OS(=O)(=O)O)C(OS(=O)(=O)O)C6O)C(O)CO)OC(COS(=O)(=O)O)C5OS(=O)(=O)O)C(O)C4OC4OC(C)C(OS(=O)(=O)O)C(OS(=O)(=O)O)C4O)OC(COS(=O)(=O)O)C3OS(=O)(=O)O)C(O)C2OC2OC(C)C(OS(=O)(=O)O)C(OS(=O)(=O)O)C2O)OC(COS(=O)(=O)O)C(OS(=O)(=O)O)C1OC1OC(C(=O)O)=CC(OC2OC(C)C(OS(=O)(=O)O)C(OS(=O)(=O)O)C2O)C1O (stereo not shown)    # (>128 μg/mL)
CC(=O)N[C@H]1[C@H](O[C@H]2[C@H](O[C@@H]3O[C@@H](C)[C@@H](OS(=O)(=O)O)[C@@H](OS(=O)(=O)O)[C@@H]3O)[C@@H](O)C(O)O[C@@H]2C(=O)O)O[C@H](COS(=O)(=O)O)[C@H](OS(=O)(=O)O)[C@@H]1O[C@@H]1OC(C(=O)O)=C[C@H](O[C@@H]2O[C@@H](C)[C@@H](OS(=O)(=O)O)[C@@H](OS(=O)(=O)O)[C@@H]2O)[C@H]1O (stereo partly shown)    # (>128 μg/mL)
CC(=O)NC1C(OC2C(C(=O)O)OC(OC3C(NC(C)=O)C(OC4C(C(=O)O)OC(OCc5ccccc5)C(O)C4OC4OC(C)C(OS(=O)(=O)O)C(O)C4OS(=O)(=O)O)OC(COS(=O)(=O)O)C3OS(=O)(=O)O)C(O)C2OC2OC(C)C(OS(=O)(=O)O)C(O)C2OS(=O)(=O)O)OC(COS(=O)(=O)O)C(OS(=O)(=O)O)C1OC1OC(C(=O)O)=CC(OC2OC(C)C(OS(=O)(=O)O)C(O)C2OS(=O)(=O)O)C1O (stereo not shown)    # (>128 μg/mL)
